Test system: P388 mouse leukemia cells
appliedConditions: 92 h
Where a SMILES comes first, the peptide text is derived from it. [ ]: non-standard residue; d: D form. The star is where a group is joined. NHCH2CH2OH = OCCN*; For = O=C*
recordedEndpoint: cell viability/% (%)
Please state the figure in %; there is no need to write the unit.

Here's what some known entries look like.
>>> measvalue("CC(C)C[C@@H](NC(=O)[C@H](C)NC(=O)CNC(=O)[C@@H](NC=O)C(C)C)C(=O)N[C@@H](C)C(=O)N[C@H](CC(C)C)C(=O)N[C@H](C(=O)N[C@H](CC(C)C)C(=O)N[C@@H](Cc1c[nH]c2ccccc12)C(=O)N[C@@H](C(=O)N[C@@H](Cc1c[nH]c2ccccc12)C(=O)N[C@H](CC(C)C)C(=O)N[C@@H](Cc1c[nH]c2ccccc12)C(=O)N[C@@H](C(=O)N[C@@H](Cc1c[nH]c2ccccc12)C(=O)NCCO)C(C)C)[C@H](C)O)C(C)C [compound 7480] (For-VGA[dL]A[dL]V[dL]W[dT]W[dL]W[dV]W-NHCH2CH2OH)")
100.0
>>> measvalue("CC(C)C[C@@H](NC(=O)[C@H](C)NC(=O)CNC(=O)[C@@H](NC=O)C(C)C)C(=O)N[C@@H](C)C(=O)N[C@@H](C(=O)N[C@H](C(=O)N[C@H](CC(C)C)C(=O)N[C@@H](Cc1c[nH]c2ccccc12)C(=O)N[C@H](CC(C)C)C(=O)N[C@@H](Cc1c[nH]c2ccccc12)C(=O)N[C@H](CC(C)C)C(=O)N[C@@H](Cc1c[nH]c2ccccc12)C(=O)N[C@@H](C(=O)N[C@@H](Cc1c[nH]c2ccccc12)C(=O)NCCO)C(C)C)C(C)C)[C@H](C)O [compound 11302] (For-VGA[dL]A[dT]V[dL]W[dL]W[dL]W[dV]W-NHCH2CH2OH)")
49.1
>>> measvalue("CC(C)C[C@@H](NC(=O)[C@H](C)NC(=O)CNC(=O)[C@@H](NC=O)C(C)C)C(=O)N[C@@H](C)C(=O)N[C@@H](C(=O)N[C@H](C(=O)N[C@@H](C(=O)N[C@@H](Cc1c[nH]c2ccccc12)C(=O)N[C@@H](C(=O)N[C@@H](Cc1c[nH]c2ccccc12)C(=O)N[C@@H](C(=O)N[C@@H](Cc1c[nH]c2ccccc12)C(=O)N[C@@H](C(=O)N[C@@H](Cc1c[nH]c2ccccc12)C(=O)NCCO)C(C)C)C(C)C)C(C)C)C(C)C)C(C)C)C(C)C [compound 9992] (For-VGA[dL]A[dV]V[dV]W[dV]W[dV]W[dV]W-NHCH2CH2OH)")
100.0

Field: next compound
Sample CC(C)C[C@@H](NC(=O)[C@@H](NC(=O)[C@H](NC(=O)[C@H](C)NC(=O)[C@H](NC(=O)[C@H](C)NC(=O)CNC(=O)[C@@H](NC=O)C(C)C)C(C)C)C(C)C)C(C)C)C(=O)N[C@@H](Cc1c[nH]c2ccccc12)C(=O)N[C@@H](C(=O)N[C@@H](Cc1c[nH]c2ccccc12)C(=O)N[C@@H](C(=O)N[C@@H](Cc1c[nH]c2ccccc12)C(=O)N[C@@H](C(=O)N[C@@H](Cc1c[nH]c2ccccc12)C(=O)NCCO)C(C)C)C(C)C)C(C)C [compound 1873] (For-VGA[dV]A[dV]V[dL]W[dV]W[dV]W[dV]W-NHCH2CH2OH) ; cell viability/% observed: 100.0
